# Test system: oligoribonucleotide 5 (hairpin loop FRET-labelled truncated pre-miR-21) (RNA, miRNA, tC^O (cytosine analogue, donor) at 24; tCnitro (cytosine analogue, acceptor) at 31) CCGACUGAUGUUGACUGUUGAAUCUCAUGGCAACACCAGUCGG
# measurement-description: interbase-FRET, change in FRET efficiency
# setup-conditions: 80 mM NaCl, 100 mM total Na+; 20 mM sodium cacodylate, pH 7.2; 1 µM RNA, 15 µM compound; single concentration, not a constant
The following molecules are listed with their measured ΔFRET15µM values.
// return a plain number; no unit text

Find the recorded ΔFRET15µM belonging to NC[C@@H]1O[C@H](O[C@H]2[C@@H](O)[C@H](O[C@@H]3[C@@H](O)[C@H](N)C[C@H](N)[C@H]3O[C@H]3O[C@H](CN)[C@@H](O)[C@H](O)[C@H]3N)O[C@@H]2CO)[C@H](N)[C@@H](O)[C@@H]1O and report it.
0.042

Entry CN[C@@H]1[C@H](O[C@H]2[C@H](O[C@H]3[C@H](O)[C@@H](O)[C@H](N=C(N)N)[C@@H](O)[C@@H]3N=C(N)N)O[C@@H](C)[C@]2(O)C=O)O[C@@H](CO)[C@H](O)[C@H]1O please
0.004

And then NC[C@H]1O[C@H](O[C@H]2[C@H](O)[C@@H](O[C@H]3O[C@H](CO)[C@@H](O)[C@H](N)[C@H]3O)[C@H](N)C[C@@H]2N)[C@H](N)C[C@@H]1O , what is it?
0.024

Here is another molecule to look at.
Param item = CN[C@@H]1[C@@H](O)[C@@H](O[C@@H]2[C@@H](O)[C@H](O[C@H]3OC(CN)=CC[C@H]3N)[C@@H](N)C[C@H]2N)OC[C@]1(C)O ; retrieve measured ΔFRET15µM.
0.023
